This collection of values is drawn from paper PMC4066874.

- target.of.assay: RORβ (Homo sapiens)
- Sequence (Q92753 whole entry): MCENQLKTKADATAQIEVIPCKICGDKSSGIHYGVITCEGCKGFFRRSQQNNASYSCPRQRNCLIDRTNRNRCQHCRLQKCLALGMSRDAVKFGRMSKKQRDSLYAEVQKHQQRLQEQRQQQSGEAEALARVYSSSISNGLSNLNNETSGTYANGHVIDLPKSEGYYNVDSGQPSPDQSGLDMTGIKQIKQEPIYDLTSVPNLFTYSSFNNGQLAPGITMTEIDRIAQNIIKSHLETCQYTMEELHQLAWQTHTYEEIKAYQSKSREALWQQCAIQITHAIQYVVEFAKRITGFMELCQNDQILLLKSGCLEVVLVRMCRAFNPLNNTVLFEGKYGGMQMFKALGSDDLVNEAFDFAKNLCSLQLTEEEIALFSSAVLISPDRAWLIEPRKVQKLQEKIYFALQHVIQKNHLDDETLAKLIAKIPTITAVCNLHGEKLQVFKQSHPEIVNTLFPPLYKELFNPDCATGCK
- measurement.description: cell-based nuclear receptor reporter
- details: read-out: IC50 for RORβ; luciferase reporter
experimental.endpoint: pIC50
One number for each entry, as −log10 of the molar value.

Per the records, this compound ( Cc1ccc([C@@H](NC(=O)Cc2ccc3oc([C@@H](O)c4c(C)noc4C)cc3c2)c2ccccc2)c(C)c1 [TMP778] ) has pIC50 equal to 5.86

----------
- target.of.assay: RORγ (Homo sapiens)
- Sequence (P51449 whole entry): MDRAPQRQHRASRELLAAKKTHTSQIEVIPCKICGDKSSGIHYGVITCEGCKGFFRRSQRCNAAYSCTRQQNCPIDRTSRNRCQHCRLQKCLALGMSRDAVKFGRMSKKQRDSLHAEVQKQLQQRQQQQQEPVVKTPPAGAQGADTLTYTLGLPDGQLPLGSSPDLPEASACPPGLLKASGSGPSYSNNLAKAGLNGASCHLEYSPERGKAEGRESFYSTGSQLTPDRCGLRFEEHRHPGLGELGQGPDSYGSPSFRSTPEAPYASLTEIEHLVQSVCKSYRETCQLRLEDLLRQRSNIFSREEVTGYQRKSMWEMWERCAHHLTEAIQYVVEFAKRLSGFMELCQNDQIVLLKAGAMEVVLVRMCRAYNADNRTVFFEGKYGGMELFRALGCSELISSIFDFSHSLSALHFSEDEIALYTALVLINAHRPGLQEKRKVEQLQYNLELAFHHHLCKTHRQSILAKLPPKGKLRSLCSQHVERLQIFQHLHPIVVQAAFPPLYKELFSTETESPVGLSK
- measurement.description: cell-based nuclear receptor reporter
- details: read-out: IC50 for luciferase activity in RORγ assays
experimental.endpoint: IC50 (µM)
Numbers only, in µM.

Kindly note: RORγ (Homo sapiens), Cc1ccc([C@@H](NC(=O)Cc2ccc3oc([C@@H](O)c4c(C)noc4C)cc3c2)c2ccccc2)c(C)c1 [TMP778] , IC50 value reported: 0.017

----------
- target.of.assay: RORα (Homo sapiens)
- Sequence (P35398 whole entry): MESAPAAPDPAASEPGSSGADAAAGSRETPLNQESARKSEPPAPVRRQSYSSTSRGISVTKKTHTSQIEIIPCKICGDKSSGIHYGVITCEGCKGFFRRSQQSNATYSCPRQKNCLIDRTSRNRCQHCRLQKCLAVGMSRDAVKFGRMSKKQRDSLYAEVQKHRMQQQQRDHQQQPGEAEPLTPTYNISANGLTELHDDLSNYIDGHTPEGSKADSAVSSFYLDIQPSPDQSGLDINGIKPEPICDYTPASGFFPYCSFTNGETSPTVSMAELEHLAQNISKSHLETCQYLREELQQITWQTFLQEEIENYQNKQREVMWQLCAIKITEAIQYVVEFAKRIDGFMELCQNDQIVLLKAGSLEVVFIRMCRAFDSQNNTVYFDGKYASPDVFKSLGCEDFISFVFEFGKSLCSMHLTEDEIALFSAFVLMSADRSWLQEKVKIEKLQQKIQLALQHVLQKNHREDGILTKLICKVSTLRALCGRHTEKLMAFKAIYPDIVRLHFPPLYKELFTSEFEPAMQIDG
- measurement.description: cell-based nuclear receptor reporter
- details: read-out: IC50 for RORα; luciferase reporter
experimental.endpoint: pIC50
Give bare numbers, as −log10 of the molar value.

// sample Cc1ccc([C@@H](NC(=O)Cc2ccc3oc([C@@H](O)c4c(C)noc4C)cc3c2)c2ccccc2)c(C)c1 [TMP778] , its pIC50 was 5.91

----------
- target.of.assay: 22 other nuclear receptors
- measurement.description: luciferase assays for 22 other nuclear receptors
- Assay type: cell-based
- details: read-out: IC50 in luciferase assays for 22 other nuclear receptors
Could you please report measured IC50 for the items listed next?

Cc1ccc(C(NC(=O)Cc2ccc(OCc3c(C)noc3C)cc2)c2ccccc2)c(C)c1 (centres unmarked) [TMP920] = > 10 µM

Turning now to a further record.
For reference, reported IC50 for Cc1ccc([C@@H](NC(=O)Cc2ccc3oc([C@@H](O)c4c(C)noc4C)cc3c2)c2ccccc2)c(C)c1 [TMP778] stands at > 10 µM

----------
Observed IC50 for RORγt ligand-binding domain (Homo sapiens, UniProt P51449), reported per entry below.
Numbers only, in nM.

Cc1ccc(C(NC(=O)Cc2ccc(OCc3c(C)noc3C)cc2)c2ccccc2)c(C)c1 (centres unmarked) [TMP920] = 30

Attention now shifts to the item below.
Kindly note the recorded IC50 for Cc1ccc([C@@H](NC(=O)Cc2ccc3oc([C@@H](O)c4c(C)noc4C)cc3c2)c2ccccc2)c(C)c1 [TMP778] , which is 5
